# ASSAY INFO: PAMPA test (parallel artificial membrane permeability assay)
# Assay type: in vitro ADME
# STUDY CONDITIONS: phosphate buffer pH 6.8, about 200 μM, about 5 hours, room temperature, read-out: Test Example 4 membrane permeation coefficient Pe
PROPERTY LABEL: Papp (×10⁻⁶ cm/s)
Kindly answer with a numeric value in ×10⁻⁶ cm/s, unit omitted.

Some compounds with known Papp results, for comparison:
C=CCN1CC(=O)N2[C@@H](Cc3ccc(O)cc3)C(=O)N(Cc3cccc(N4CC(N5CCN(C)[C@@H](C)C5)C4)n3)C[C@@H]2N1C(=O)NCc1ccccc1 ... 1.04
C=CCN1CC(=O)N2[C@@H](Cc3c(F)cc(O)cc3F)C(=O)N(Cc3cccc(N4CC(N5CCN(CC)CC5)C4)n3)C[C@@H]2N1C(=O)NCc1ccccc1 ... 0.52

Could you now look at the following compound, please?
Input: Please report Papp for the following compound: `C=CCN1CC(=O)N2[C@@H](Cc3ccc(O)cc3F)C(=O)N(Cc3cccc(N4CC(N5CCN(C)[C@@H](C)C5)C4)n3)C[C@@H]2N1C(=O)NCc1ccccc1`
Output: 2.03
